Molecular target: T1, Macaca fascicularis IL2Rγ extracellular domain expressed with a C-terminal myc-myc-hexahistidine tag (Macaca fascicularis)
T1 construct: also called mfIL-2Rg-MMH; mfIL-2RG-MMH
T1 chain: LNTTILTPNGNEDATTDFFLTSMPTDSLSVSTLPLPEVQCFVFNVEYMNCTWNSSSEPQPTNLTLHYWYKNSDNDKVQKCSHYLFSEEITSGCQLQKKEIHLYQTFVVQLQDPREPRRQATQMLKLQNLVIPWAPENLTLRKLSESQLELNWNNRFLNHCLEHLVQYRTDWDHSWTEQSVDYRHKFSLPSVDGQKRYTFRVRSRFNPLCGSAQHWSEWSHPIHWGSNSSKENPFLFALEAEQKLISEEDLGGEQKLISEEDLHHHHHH
Experiment: SPR Biacore 4000, mAb captured by anti-hFc, 37C, dissociation in PBS-T pH 7.4
Let's look at some binders and their measured 100 nM Ag Bound (RU).
Number only, in RU; omit the unit.

Worked cases, answers included:
H4H12900P (antibody, human IgG4 S228P, kappa, V domains shown, anti-IL2Rγ monoclonal antibody expressed with human IgG4 Fc) VH: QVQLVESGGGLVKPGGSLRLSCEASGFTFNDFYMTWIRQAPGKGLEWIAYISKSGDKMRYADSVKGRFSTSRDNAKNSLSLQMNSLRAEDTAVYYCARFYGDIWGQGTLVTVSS VL: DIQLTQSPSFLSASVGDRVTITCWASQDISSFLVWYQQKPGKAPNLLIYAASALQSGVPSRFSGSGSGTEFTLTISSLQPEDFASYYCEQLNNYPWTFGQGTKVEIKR; 166
H4H12863P (antibody, human IgG4 S228P, kappa, V domains shown, anti-IL2Rγ monoclonal antibody expressed with human IgG4 Fc) VH: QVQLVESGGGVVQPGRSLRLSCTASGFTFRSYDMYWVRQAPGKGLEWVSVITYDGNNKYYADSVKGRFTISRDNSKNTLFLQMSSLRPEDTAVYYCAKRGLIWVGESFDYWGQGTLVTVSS VL: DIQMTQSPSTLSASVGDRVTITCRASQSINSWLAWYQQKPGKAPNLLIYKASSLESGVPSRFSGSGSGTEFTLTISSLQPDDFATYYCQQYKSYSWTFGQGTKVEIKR; 177

Problem: Find the measured 100 nM Ag Bound (RU) of H4H12890P (antibody, human IgG4 S228P, kappa, V domains shown, anti-IL2Rγ monoclonal antibody expressed with human IgG4 Fc) VH: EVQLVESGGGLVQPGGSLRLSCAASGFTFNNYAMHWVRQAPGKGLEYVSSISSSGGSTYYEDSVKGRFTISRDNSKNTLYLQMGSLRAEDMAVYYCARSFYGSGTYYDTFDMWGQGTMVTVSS VL: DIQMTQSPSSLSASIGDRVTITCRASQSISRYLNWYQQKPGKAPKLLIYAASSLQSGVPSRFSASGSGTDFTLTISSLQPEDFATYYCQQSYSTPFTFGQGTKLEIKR and report it.
Result: 82

Problem: Find the measured 100 nM Ag Bound (RU) of H4H12886P (antibody, human IgG4 S228P, kappa, V domains shown, anti-IL2Rγ monoclonal antibody expressed with human IgG4 Fc) VH: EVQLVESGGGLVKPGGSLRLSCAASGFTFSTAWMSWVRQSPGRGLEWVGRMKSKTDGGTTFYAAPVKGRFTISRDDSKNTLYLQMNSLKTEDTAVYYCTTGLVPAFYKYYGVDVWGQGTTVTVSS VL: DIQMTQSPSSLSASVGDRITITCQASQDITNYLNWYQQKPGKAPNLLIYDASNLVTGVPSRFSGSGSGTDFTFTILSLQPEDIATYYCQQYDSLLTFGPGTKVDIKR and report it.
Result: 145

Problem: Find the measured 100 nM Ag Bound (RU) of H4H13541P (antibody, human IgG4 S228P, kappa, V domains shown, anti-IL2Rγ monoclonal antibody expressed with human IgG4 Fc) VH: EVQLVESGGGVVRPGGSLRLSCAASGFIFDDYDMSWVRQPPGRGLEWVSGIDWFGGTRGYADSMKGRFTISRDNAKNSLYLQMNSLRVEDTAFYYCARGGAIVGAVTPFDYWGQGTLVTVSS VL: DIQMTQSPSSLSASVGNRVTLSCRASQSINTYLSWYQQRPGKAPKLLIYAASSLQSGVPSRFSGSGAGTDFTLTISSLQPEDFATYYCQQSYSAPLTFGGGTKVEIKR and report it.
Result: 100
